Give measured IC50 for each item. Keep answers brief.
- subjectOfTest: MRSA Pyk (Staphylococcus aureus, UniProt Q6GG09)
- Sequence (Q6GG09 whole entry): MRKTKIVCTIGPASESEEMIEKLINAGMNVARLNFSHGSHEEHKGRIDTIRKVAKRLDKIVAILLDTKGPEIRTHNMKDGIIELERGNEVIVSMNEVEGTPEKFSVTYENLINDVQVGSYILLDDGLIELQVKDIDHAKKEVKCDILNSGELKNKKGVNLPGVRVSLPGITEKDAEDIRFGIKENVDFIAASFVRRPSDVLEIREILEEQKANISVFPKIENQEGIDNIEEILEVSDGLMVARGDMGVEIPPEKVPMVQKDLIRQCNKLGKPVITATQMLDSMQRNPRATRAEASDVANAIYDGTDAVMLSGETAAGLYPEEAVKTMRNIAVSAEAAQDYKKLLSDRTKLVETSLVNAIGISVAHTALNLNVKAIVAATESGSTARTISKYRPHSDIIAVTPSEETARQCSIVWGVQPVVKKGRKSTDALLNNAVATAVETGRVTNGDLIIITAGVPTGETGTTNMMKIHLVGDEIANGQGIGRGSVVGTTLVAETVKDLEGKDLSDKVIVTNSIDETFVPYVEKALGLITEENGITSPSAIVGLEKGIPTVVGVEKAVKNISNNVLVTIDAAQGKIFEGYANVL
- procedureDetails: MRSA pyruvate kinase (PK) activity, continuous LDH-coupled assay

molecule: O=C(NCc1cccnc1)c1c(/C=C/c2ccc(Cl)nc2)[nH]c2cc(Br)ccc12 [Compound 37]
subjectOfTest: MRSA Pyk (Staphylococcus aureus, UniProt Q6GG09)
IC50: 100 to 1000 nM

molecule: CC(C)(C)OC(=O)N1CCN(CCNC(=O)c2c(/C=C/c3ccc(Cl)cc3)[nH]c3cc(Br)ccc23)CC1 [Compound 33]
subjectOfTest: MRSA Pyk (Staphylococcus aureus, UniProt Q6GG09)
IC50: > 1000 nM

molecule: O=C(NCCCCN1CCOCC1)c1c(/C=C/c2ccc(Cl)cc2)[nH]c2cc(Br)ccc12 [Compound 45]
subjectOfTest: MRSA Pyk (Staphylococcus aureus, UniProt Q6GG09)
IC50: < 100 nM

molecule: OC(c1c(/C=C/c2ccc(Cl)cc2)[nH]c2cc(Br)ccc12)(C(F)(F)F)C(F)(F)F [Compound 13]
subjectOfTest: MRSA Pyk (Staphylococcus aureus, UniProt Q6GG09)
IC50: 100 to 1000 nM

molecule: CN1CCN(CCNC(=O)c2c(-c3cc4cc(Cl)ccc4[nH]3)[nH]c3cc(Br)ccc23)C(c2ccccc2)C1 (stereo not shown) [Compound 139]
subjectOfTest: MRSA Pyk (Staphylococcus aureus, UniProt Q6GG09)
IC50: < 100 nM

molecule: O=C(c1c(/C=C/c2ccc(Cl)cc2)[nH]c2cc(Br)ccc12)C1CC1 [Compound 2]
subjectOfTest: MRSA Pyk (Staphylococcus aureus, UniProt Q6GG09)
IC50: < 100 nM

Here is the next item to consider.
Entry under test: O=C(CCCC(=O)c1c(-c2cc3cc(Cl)ccc3[nH]2)[nH]c2cc(Br)ccc12)Nc1ncn[nH]1 [Compound 105] . Its IC50 was < 100 nM

###

- subjectOfTest: UniProtKB Q6GG09
- procedureDetails: MRSA pyruvate kinase (PK) activity, continuous LDH-coupled assay
measurementKind: IC50

Below: 3 compounds and their reported IC50.
entrySmiles: O=C(O)CCNC(=O)c1c(-c2cc3cc(Cl)ccc3[nH]2)[nH]c2cc(Br)ccc12
measurementKind: IC50
reported: < 100 nM
//
entrySmiles: CC(C)[C@@H](C(=O)OCCCNC(=O)c1c(-c2cc3cc(Cl)ccc3[nH]2)[nH]c2cc(Br)ccc12)N(C)C
measurementKind: IC50
reported: < 100 nM
//
entrySmiles: CC(=O)Nc1c(/C=C/c2ccc(Cl)cc2)[nH]c2cc(Br)ccc12
measurementKind: IC50
reported: 100 to 1000 nM

Here is the next item to consider.
Entry under test: `COc1ccc(/C=C/c2[nH]c3cc(Br)ccc3c2C(=O)NCCO)nc1` . Its IC50 was 100 to 1000 nM

###

- subjectOfTest: UniProtKB Q6GG09
- procedureDetails: MRSA pyruvate kinase (PK) activity, continuous LDH-coupled assay
measurementKind: IC50

Below: 5 compounds and their reported IC50.
compound: CN1CCCN(CCNC(=O)c2c(-c3cc4cc(Cl)ccc4[nH]3)[nH]c3cc(Br)ccc23)CC1 [Compound 119]
reported: < 100 nM

compound: C[n+]1ccc(CCNC(=O)c2c(-c3cc4cc(Cl)ccc4[nH]3)[nH]c3cc(Br)ccc23)cc1 [Compound 149]
reported: < 100 nM

compound: CN(C)CCNC(=O)c1c(-c2cc3cc(Cl)ccc3[nH]2)[nH]c2cc(Br)ccc12 [Compound 73]
reported: < 100 nM

compound: O=C(O)CCCC(=O)c1c(-c2cc3cc(Cl)ccc3[nH]2)[nH]c2cc(Br)ccc12 [Compound 102]
reported: < 100 nM

compound: O=C(c1c(-c2cc3ccccc3[nH]2)[nH]c2cc(Br)ccc12)N1CCOCC1 [Compound 76]
reported: > 1000 nM

For each of the items listed, what is its IC50?
1. OC(c1c(CCc2ccc(Cl)cc2)[nH]c2cc(Br)ccc12)(C(F)(F)F)C(F)(F)F [Compound 14]
2. O=C(CO)Nc1c(/C=C/c2ccc(Cl)cc2)[nH]c2cc(Br)ccc12 [Compound 95]
3. CN(C)CCNC(=O)c1c(/C=C/c2cc(Cl)cc(Cl)c2)[nH]c2cc(Br)ccc12 [Compound 34]

Reply |
1. 100 to 1000 nM
2. 100 to 1000 nM
3. > 1000 nM

For each of the items listed, what is its IC50?
1. CN1CCCN(CCCNC(=O)c2c(-c3cc4cc(Cl)ccc4[nH]3)[nH]c3cc(Br)ccc23)CC1 [Compound 118]
2. CC(=O)OCCCNC(=O)c1c(-c2cc3cc(Cl)ccc3[nH]2)[nH]c2cc(Br)ccc12 [Compound 183]
3. CNC(=O)C(=O)c1c(/C=C/c2ccc(Cl)cc2)[nH]c2cc(Br)ccc12 [Compound 87]
4. OC(c1c(CCc2ccc(Cl)cc2)[nH]c2cc(Br)ccc12)C(F)(F)F (stereo not shown) [Compound 17]

Reply |
["< 100 nM", "< 100 nM", "< 100 nM", "100 to 1000 nM"]

Field IC50 (system: UniProtKB Q6GG09) for entry CCCC(=O)OC1CCN(CCNC(=O)c2c(/C=C/c3ccc(Cl)cc3)[nH]c3cc(Br)ccc23)CC1 [Compound 57] = 100 to 1000 nM

###

- subjectOfTest: MRSA Pyk (Staphylococcus aureus, UniProt Q6GG09)
- procedureDetails: MRSA pyruvate kinase (PK) activity, continuous LDH-coupled assay
pIC50: −log10 of the molar value.
measurementKind: pIC50

Below: 5 compounds and their reported pIC50.
compound: O=C(NCCN1CCC[C@H]1C(=O)O)c1c(-c2cc3cc(Cl)ccc3[nH]2)[nH]c2cc(Br)ccc12
pIC50: > 7.00
--
compound: CN(C)CC(=O)OCCCNC(=O)c1c(-c2cc3cc(Cl)ccc3[nH]2)[nH]c2cc(Br)ccc12
pIC50: > 7.00
--
compound: CN(C)CCN(C)C(=O)c1c(/C=C/c2ccc(Cl)cc2)[nH]c2cc(Br)ccc12
pIC50: 6.00 to 7.00
--
compound: O=C(NCc1ccccc1)c1c(/C=C/c2ccc(Cl)cc2)[nH]c2cc(Br)ccc12
pIC50: > 7.00
--
compound: COC(=O)C[N+](C)(C)CCON=C(c1c(-c2cc3cc(Cl)ccc3[nH]2)[nH]c2cc(Br)ccc12)C(F)(F)F (racemic)
pIC50: > 7.00

For each of the items listed, what is its pIC50?
1. CN(C)CCOC(=O)c1c(C(=O)Nc2ccc(Cl)cc2)[nH]c2cc(Br)ccc12
2. O=C(O)C(=O)c1c(/C=C/c2ccc(Cl)cc2)[nH]c2cc(Br)ccc12
3. O=C(NC1CCNCC1)c1c(/C=C/c2ccc(Cl)cc2)[nH]c2cc(Br)ccc12
4. C[N+](C)(CCO/N=C(/c1c(-c2cc3cc(Cl)ccc3[nH]2)[nH]c2cc(Br)ccc12)C(F)(F)F)CC(=O)[O-]

Reply |
1: > 7.00; 2: 6.00 to 7.00; 3: > 7.00; 4: 6.00 to 7.00

###

- subjectOfTest: UniProtKB Q6GG09
- procedureDetails: MRSA pyruvate kinase (PK) activity, continuous LDH-coupled assay
pIC50: −log10 of the molar value.
measurementKind: pIC50

Below: 5 compounds and their reported pIC50.
compound: CN1CCN(CCNC(=O)c2c(/C=C/c3ccc(Cl)cc3)[nH]c3cc(Br)ccc23)CC1
measurementKind: pIC50
reported: > 7.00

compound: CN(C)C(=O)c1cc(Br)cc2[nH]c(/C=C/c3ccc(Cl)cc3)cc12
measurementKind: pIC50
reported: > 7.00

compound: COC(=O)COc1cc2[nH]c(-c3cc4ccc(Br)cc4[nH]3)cc2cc1Cl
measurementKind: pIC50
reported: > 7.00

compound: CN(C)C(=O)c1c(/C=C/c2ccc(Cl)nc2)[nH]c2cc(Br)ccc12
measurementKind: pIC50
reported: 6.00 to 7.00

compound: O=C(NCCC1CCC(O)CC1)c1c(/C=C/c2ccc(Cl)cc2)[nH]c2cc(Br)ccc12 (stereo not drawn)
measurementKind: pIC50
reported: > 7.00

Here is the next item to consider.
Field pIC50 (system: UniProtKB Q6GG09) for entry `O=C(CCN1CCOCC1)c1c(/C=C/c2cn3ccccc3n2)[nH]c2cc(Br)ccc12` = 6.00 to 7.00
